Each recorded value in this set is attributed to paper PMC12377187.

- Tested on: RD – rhabdomyosarcoma cell line
- METHOD DESCRIPTION: MTT cytotoxicity, RD cell line
- Assay type: cell-based
- MEASUREMENT PARAMETERS: Rhabdomyosarcoma cell, 72 h, read-out: IC50 RD, MTT, 72 h, mean ± SD

COMPOUND	IC50
COc1ccc(C=Nn2c(-c3ccccc3)nc3ccc(Cl)cc3c2=O)cc1OC	130 µM
CCOc1ccc(C=Nn2c(-c3ccccc3)nc3ccc(Cl)cc3c2=O)cc1	376 µM
O=c1c2cc(Cl)ccc2nc(-c2ccccc2)n1N=Cc1ccc2c(c1)OCO2	50 to 55 µM
O=c1c2cc(Cl)ccc2nc(-c2ccccc2)n1N=Cc1ccccc1O	51.1 µM
COc1ccc(C=Nn2c(-c3ccccc3)nc3ccc(Cl)cc3c2=O)cc1O	48.1 µM
O=c1c2cc(Cl)ccc2nc(-c2ccccc2)n1N=Cc1ccc([N+](=O)[O-])cc1	151 µM
O=c1c2cc(Cl)ccc2nc(-c2ccccc2)n1N=Cc1ccccc1Cl	126 µM
O=c1c2cc(Cl)ccc2nc(-c2ccccc2)n1N=Cc1ccc(F)cc1	235 µM
O=c1c2cc(Cl)ccc2nc(-c2ccccc2)n1N=Cc1ccc(Br)cc1O	50 to 55 µM
O=c1c2cc(Cl)ccc2nc(-c2ccccc2)n1N=Cc1cccc(O)c1	254 µM
O=c1c2cc(Cl)ccc2nc(-c2ccccc2)n1N=Cc1ccc(Cl)c(Cl)c1	246 µM
O=c1c2cc(Cl)ccc2nc(-c2ccccc2)n1N=Cc1ccccc1	143 µM
CN(C)c1ccc(C=Nn2c(-c3ccccc3)nc3ccc(Cl)cc3c2=O)cc1	198 µM
CC(=O)O[C@H]1C(=O)[C@@]2(C)[C@H]([C@H](OC(=O)c3ccccc3)[C@]3(O)C[C@H](OC(=O)[C@H](O)[C@@H](NC(=O)c4ccccc4)c4ccccc4)C(C)=C1C3(C)C)[C@]1(OC(C)=O)CO[C@@H]1C[C@@H]2O [PTX, paclitaxel, reference compound]	0.58 µM
O=c1c2cc(Cl)ccc2nc(-c2ccccc2)n1N=Cc1cccnc1	136 µM
O=c1c2cc(Cl)ccc2nc(-c2ccccc2)n1N=Cc1ccc(Cl)cc1Cl	251 µM
O=c1c2cc(Cl)ccc2nc(-c2ccccc2)n1N=Cc1ccco1	38.6 µM
O=c1c2cc(Cl)ccc2nc(-c2ccccc2)n1N=Cc1c(F)cccc1Cl	14.7 µM
O=c1c2cc(Cl)ccc2nc(-c2ccccc2)n1N=Cc1cccc([N+](=O)[O-])c1	82.3 µM
COc1cccc(C=Nn2c(-c3ccccc3)nc3ccc(Cl)cc3c2=O)c1	84.8 µM
CCOc1ccc(C=Nn2c(-c3ccccc3)nc3ccc(Cl)cc3c2=O)cc1O	430 µM
